# experimental.system: T1, CLD18A1 (Homo sapiens (Human), UniProt P56856 1-261)
# T1 construct: also called claudin 18 splice variant A1; CHO-S-CLD18A1
# T1 sequence (P56856 whole entry, canonical isoform): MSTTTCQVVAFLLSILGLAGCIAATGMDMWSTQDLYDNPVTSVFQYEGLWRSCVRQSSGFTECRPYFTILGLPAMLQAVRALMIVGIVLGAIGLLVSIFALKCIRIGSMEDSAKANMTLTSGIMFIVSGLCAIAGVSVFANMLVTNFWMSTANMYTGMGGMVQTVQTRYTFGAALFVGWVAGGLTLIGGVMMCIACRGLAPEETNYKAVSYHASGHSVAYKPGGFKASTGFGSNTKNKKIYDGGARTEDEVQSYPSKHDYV
# procedure.text: cell ELISA, E. coli expression supernatant on CHO-S-CLD18A1
quantity.kind: OD450 nm (OD450 nm)
Numbers only here, please. The scale is OD450 nm.

Lab note: Anti-C18.2-20 (VHH, not shown: small tags and cut ends, Treated as one molecule; also called C18-20) VHH: QVQLVESGGGLVQPGGSLRLSCAASGSIFSINAMGWYRQAPGKQRELVAAITFGGGSTNYADSVKGRFTISRDNAKNTVYLQMNSLKPEDTAVYYCNADLLVGGFPRRNVYWGQGTQVTVSS gave OD450 nm of 0.128

Measured OD450 nm of Anti-C18.2-7 (VHH, not shown: small tags and cut ends, Treated as one molecule; also called C18-7) VHH: QVQLVESGGGLVQPGGSLRLSCAASGSIFLINAMGWYRQAPGKQRELVAVITRGGSANYTDSVKGRFTISRDNAKNTVYLQMNSLKPEDTAVYYCNADLNLRSDPFKWYTFWGQGTQVTVSS : 0.132

OD450 nm measured on Anti-C18.2-69 (VHH, not shown: small tags and cut ends, Treated as one molecule; also called C18-69) VHH: QVQLVESGGGLVQPGGSLRLSCAASGSIFSIPVMTWYRQALGKEREFVAGISKGGTSNYADSVKGRFTVSRDNAKNTVYLQMNSLKSEDTAVYYCNAQASSFGWMPLSDYWGQGTQVTVSS = 0.253

Query Anti-C18.2-28 (VHH, not shown: small tags and cut ends, Treated as one molecule; also called C18-28) VHH: QVQLVESGGGLVQPGGSLRLSCAASGSIFMINVMGWYRQAPGKQRELVAVITRGASTNYADSVKGRFTISRDNAKNTVYLQMNSLKPEDTAVYYCNADLNLASDPFKWYTYWGQGTQVTVSS yields OD450 nm of 0.121

The binder listed as Anti-C18.2-6 (VHH, not shown: small tags and cut ends, Treated as one molecule; also called C18-6) VHH: QLQLVESGGGLVQPGGSLRLSCAASGGIFSIGVMGWYRQAPGKQRELVATITSRGSTNYADSVKGRFTISGDNAKNTVYLQMNNLKPEDTAVYYCYADLIRPGDFYGMDYWGKGTLVTVSS shows OD450 nm equal to 0.142

The binder identified as Anti-C18.2-32 (VHH, not shown: small tags and cut ends, Treated as one molecule; also called C18-32) VHH: QLQLVESGGGLVQPGGSLRLSCAASGEISSDAMAWYRQAPGKQRELVAGMTRGGSTNYADSVKGRFTISRDFAKNTVDLQMNSLKPEDTAVYYCNAEIYTGTFYPRSYWGQGTQVTVSS registered its OD450 nm at 0.107

Item: Anti-C18.2-19 (VHH, not shown: small tags and cut ends, Treated as one molecule; also called C18-19) VHH: QLQLVESGGGLVQPGGSLRLSCAASGVDISSDVMAWYRQAPGKQREFVSGLTRGGSINYADSVKGRFTISRDFAKNTVDLQMNSLKPEDTAVYYCNAEIYTGTFYPRSYWGQGTQVTVSS | OD450 nm: 0.121

// recorded OD450 nm for Anti-C18.2-15 (VHH, not shown: small tags and cut ends, Treated as one molecule; also called C18-15) VHH: QVQLVESGGGLVQPGGSLRLSCTASGSIFRIDGMHWYRQAPGKQRELVASITPSGITHYADSVKGRFTISRDIAKKMQYLQMNSLKPEDTAVYYCNAHLVKVGGVWSDEYWGQGTQVTVSS : 0.189
